B1: library; a variant is named by its letters at N, in order (parent)
chain: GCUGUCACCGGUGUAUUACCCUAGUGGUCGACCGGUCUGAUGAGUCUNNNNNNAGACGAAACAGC

Variants of: B1
Test: normalized RNA/DNA level with ligand (relative to sTRSVctl = 100) (log10 (% of sTRSVctl)); ligand: hypoxanthine (xanthine aptamer); higher = less ribozyme self-cleavage, higher mRNA level
Details: ligand concentration (+) RNA-Seq: 5 mM, HEK293T, reporter: mCherry (pCS4076), ligand present: yes
Endpoint name: normalized RNA/DNA level with ligand (log10)
Answers are plain numbers.

GUCUUU
1.95

Hi team, please reply with normalized RNA/DNA level with ligand (log10) for each item in this list.
1. ACUUAC
2. ACUCGA

1. 1.93
2. 1.96

Hi team, please reply with normalized RNA/DNA level with ligand (log10) for each item in this list.
1. ACUACG
2. UGCCUU
3. AUUAAU
4. AAGUUG
5. UACCGA
6. GAUUAU

1: 1.93; 2: 1.94; 3: 1.89; 4: 1.63; 5: 1.91; 6: 1.94

Hi team, please reply with normalized RNA/DNA level with ligand (log10) for each item in this list.
1. UUAUCU
2. GUAAAG
3. CCGCAG

1.98
1.82
1.82

Taken from the supplement of paper PMC6757056.
